# Test system: RPMI-8226
# MEASUREMENT_PROTOCOL: NCI tumour cell line growth inhibition, 48 h
Calls of active or inactive are those of the source. No stated cut-off is given here; in the data, active = GI50 up to about 1.1 µM and inactive = higher.
RECORDED_ENDPOINT: GI50

Worked cases, GI50 given:
[
  {
    "COMPOUND": "Cc1ccc(S(=O)(=O)C(C#N)c2nc3ccccc3nc2-n2cccn2)cc1 (stereo not given)",
    "TARGET_DESC": "RPMI-8226",
    "GI50": "> 100 µM (inactive)"
  },
  {
    "COMPOUND": "COc1ccc(C(c2ccc(C(C)C)cc(OC)c2=O)c2ccc(C(C)C)cc(OC)c2=O)cc1",
    "TARGET_DESC": "RPMI-8226",
    "GI50": "5.06 µM (inactive)"
  },
  {
    "COMPOUND": "O=[N+]([O-])c1cc(Cl)ccc1S(=O)(=O)c1cc(Cl)cc2c1NCCC2",
    "TARGET_DESC": "RPMI-8226",
    "GI50": "> 100 µM (inactive)"
  },
  {
    "COMPOUND": "CCOC(=O)/C(C#N)=C1/SC(C(=O)N/N=C/c2ccc(OC)cc2)=C(N)N1c1ccccc1",
    "TARGET_DESC": "RPMI-8226",
    "GI50": "1.71 µM (inactive)"
  },
  {
    "COMPOUND": "CCCC(=O)Nc1ncnc2c1ncn2C1OC2COP(=O)(O)OC2C1OC(=O)CCC (stereo not given)",
    "TARGET_DESC": "RPMI-8226",
    "GI50": "> 1000 µM (inactive)"
  },
  {
    "COMPOUND": "O=C1c2cscc2C(=O)C1(O)O",
    "TARGET_DESC": "RPMI-8226",
    "GI50": "45 µM (inactive)"
  },
  {
    "COMPOUND": "Cc1cc(=O)oc2c1cc(OCC(=O)OCCN1CCCCC1)c1occ(C)c12",
    "TARGET_DESC": "RPMI-8226",
    "GI50": "> 100 µM (inactive)"
  },
  {
    "COMPOUND": "O=[N+]([O-])/C=C\\c1c[nH]c2ccc(OCc3ccccc3)cc12",
    "TARGET_DESC": "RPMI-8226",
    "GI50": "2.08 µM (inactive)"
  },
  {
    "COMPOUND": "CCC(=O)Nc1cccc(NC(=O)c2c(Cl)c(Cl)c(Cl)c(Cl)c2-c2nc3ccccc3[nH]2)c1",
    "TARGET_DESC": "RPMI-8226",
    "GI50": "8.02 µM (inactive)"
  },
  {
    "COMPOUND": "COc1cc(Br)c(OC)c2c(OC)cc(C)cc12",
    "TARGET_DESC": "RPMI-8226",
    "GI50": "54.5 µM (inactive)"
  }
]

Can you share its GI50? I mean this compound: CC(NC(=O)CNP(=O)(c1ccccc1)c1ccccc1)C(=O)NC(Cc1ccccc1)C(=O)OCc1ccccc1 (stereo not given)
33 µM (inactive)

Now give it for CCc1cc2c(c3c1CCCC3=O)CC1(Cc3ccc(C(=O)OC)cc3C1)C2 (stereo not given) too.
18.7 µM (inactive)

Now give it for `O=Cc1c[nH]c2c(=O)[nH]cnc12` too.
> 100 µM (inactive)

Now give it for COC(=O)CC[C@@H](NC(=O)C(C)NC(=O)COC1C(O)C(COC(=O)CCCCCCCCCCNC(=O)c2ccc([N+](=O)[O-])c3[nH]c4cc(Br)ccc4c(=O)c23)OC(OCc2ccccc2)C1NC(C)=O)C(N)=O (stereo not given in full) too.
39.7 µM (inactive)
